conditions: in DMAc, 313.15 K
Endpoint: solubility (mole fraction)

Recorded solubility (mole fraction) for O=c1[nH]c2ccccc2n1CCCN1CCC(n2c(=O)[nH]c3cc(Cl)ccc32)CC1 , please?
0.00234

* * *

conditions: in isopropanol, 298.15 K
Endpoint: solubility (mole fraction)
// keep it numeric: no unit symbol after the value

Need solubility (mole fraction), item O=c1[nH]c2ccccc2n1CCCN1CCC(n2c(=O)[nH]c3cc(Cl)ccc32)CC1
2.27e-05

* * *

settings: in DMAc, 308.15 K
Endpoint: solubility (mole fraction)
Just the number, please, no unit after it.

So what does the record say about solubility (mole fraction) for O=c1[nH]c2ccccc2n1CCCN1CCC(n2c(=O)[nH]c3cc(Cl)ccc32)CC1 ?
0.00208

* * *

conditions: in methanol, 303.15 K
Endpoint: solubility (mole fraction)
Note: the reply should be a number with no unit written.

Which solubility (mole fraction) is listed for O=c1[nH]c2ccccc2n1CCCN1CCC(n2c(=O)[nH]c3cc(Cl)ccc32)CC1 ?
2.56e-05

* * *

conditions: in acetonitrile, 303.15 K
Endpoint: solubility (mole fraction)
Format: numeric value only, no unit, no commentary.

May I ask what solubility (mole fraction) has been recorded for O=c1[nH]c2ccccc2n1CCCN1CCC(n2c(=O)[nH]c3cc(Cl)ccc32)CC1 ?
6.68e-07

* * *

settings: in DMF, 313.15 K
Endpoint: solubility (mole fraction)
Returns: the value as a bare number; no unit string appended.

Param item = O=c1[nH]c2ccccc2n1CCCN1CCC(n2c(=O)[nH]c3cc(Cl)ccc32)CC1 ; retrieve measured solubility (mole fraction).
0.000471

* * *

settings: in water, 288.15 K
Endpoint: solubility (mole fraction)
Output: the number by itself.

If you can, please state the reported solubility (mole fraction) value of O=c1[nH]c2ccccc2n1CCCN1CCC(n2c(=O)[nH]c3cc(Cl)ccc32)CC1 .
1.38e-07

* * *

conditions: in ethanol, 318.15 K
Endpoint: solubility (mole fraction)
// keep it numeric: no unit symbol after the value

Given O=c1[nH]c2ccccc2n1CCCN1CCC(n2c(=O)[nH]c3cc(Cl)ccc32)CC1 , state its recorded solubility (mole fraction).
5.35e-05

* * *

details: in ethanol, 303.15 K
Endpoint: solubility (mole fraction)
When you answer, write just the number.

Dear colleague, I am looking for the recorded solubility (mole fraction) of the following compound: O=c1[nH]c2ccccc2n1CCCN1CCC(n2c(=O)[nH]c3cc(Cl)ccc32)CC1
2.93e-05

* * *

details: in n-propanol, 278.15 K
Endpoint: solubility (mole fraction)

solubility (mole fraction) for O=c1[nH]c2ccccc2n1CCCN1CCC(n2c(=O)[nH]c3cc(Cl)ccc32)CC1 ?
1.18e-05

* * *

conditions: in water, 308.15 K
Endpoint: solubility (mole fraction)
Answer field: number only, no words.

Record request: solubility (mole fraction) value, item O=c1[nH]c2ccccc2n1CCCN1CCC(n2c(=O)[nH]c3cc(Cl)ccc32)CC1
3.35e-07

* * *

conditions: in n-butanol, 318.15 K
Endpoint: solubility (mole fraction)

Record request: solubility (mole fraction) value, item O=c1[nH]c2ccccc2n1CCCN1CCC(n2c(=O)[nH]c3cc(Cl)ccc32)CC1
8.57e-05

* * *

conditions: in DMSO, 308.15 K
Endpoint: solubility (mole fraction)
Answer with the value's number alone.

I'd like to know its solubility (mole fraction). The molecule in question is O=c1[nH]c2ccccc2n1CCCN1CCC(n2c(=O)[nH]c3cc(Cl)ccc32)CC1
0.000832
